Reference source: patent US7776882B2

target: β-secretase (BACE) (Homo sapiens); construct: purchased Panvera; experiment: In Vitro BACE FS1 % Inhibition Assay (Example 10); format: biochemical; details: 1 μM compound; FS1 substrate; values below about 25% (including negative) within noise
Parameter: inhibition at 1 µM (%)

Below: 2 compounds and their reported inhibition at 1 µM.
- Compound: "CN(C(=O)CC[C@H](c1cc2cc(Oc3ccccc3)ccc2nc1N)C1CCOCC1)C1CCCCC1"
  Readout Value: 114
- Compound: "CC1CCCC(NC(=O)CCc2cc3cc(Oc4ccccc4)ccc3nc2N)C1 (centres unmarked)"
  Readout Value: 89

(1) CN(C(=O)CCC(c1cc2cc(Oc3ccccc3)ccc2nc1N)C1CCOCC1)C1CCCCC1 (centres unmarked)
(2) CN(C(=O)CCC(c1cc2cc(Oc3ccccc3)ccc2nc1N)C1CCCCC1)C1CCCCC1 (centres unmarked)
(3) CC(C)=CCCC(C)=CCNC(=O)CCc1cc2cc(Oc3ccccc3)ccc2nc1N
Asked: Rank items: key inhibition at 1 µM, increasing. Reply with the item labels sorted in the order that was asked for.
Given back: 2, 3, 1
(2: 27%, 3: 42%, 1: 88%)

----------
molecular target: β-secretase (BACE) (Homo sapiens, UniProt P56817); construct: purchased Panvera; assay: In Vitro BACE FS1 % Inhibition Assay (Example 10); format: biochemical; settings: 0.3 μM compound; FS1 substrate; values below about 25% (including negative) within noise
Sequence (P56817 46-501): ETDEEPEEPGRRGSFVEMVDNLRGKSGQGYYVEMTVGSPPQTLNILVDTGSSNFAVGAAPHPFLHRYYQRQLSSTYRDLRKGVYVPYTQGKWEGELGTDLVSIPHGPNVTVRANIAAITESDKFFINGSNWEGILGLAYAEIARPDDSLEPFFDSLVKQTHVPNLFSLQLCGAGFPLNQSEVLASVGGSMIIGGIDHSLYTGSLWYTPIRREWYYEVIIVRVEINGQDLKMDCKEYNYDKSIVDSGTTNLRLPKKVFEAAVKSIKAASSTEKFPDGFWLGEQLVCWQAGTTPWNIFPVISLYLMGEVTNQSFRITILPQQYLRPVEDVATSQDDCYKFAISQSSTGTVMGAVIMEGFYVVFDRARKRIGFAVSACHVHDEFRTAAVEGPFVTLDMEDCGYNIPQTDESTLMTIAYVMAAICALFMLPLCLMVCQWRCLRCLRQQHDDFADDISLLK
Parameter: inhibition at 0.3 µM (%)

- Compound: "CN(C(=O)CCC(c1cc2cc(Oc3ccccc3)ccc2nc1N)C1CCCCC1)C1CCCCC1 (stereo not shown)"
  Readout Value: 29
- Compound: "CN(C(=O)CC[C@H](c1cc2cc(Oc3ccccc3)ccc2nc1N)C1CCOCC1)C1CCCCC1"
  Readout Value: 83

(P) CC1CCCC(NC(=O)CCc2cc3cc(Oc4ccccc4)ccc3nc2N)C1 (stereo not shown)
(Q) CC(C)=CCCC(C)=CCNC(=O)CCc1cc2cc(Oc3ccccc3)ccc2nc1N
Asked: Pick one: P or Q . Which has the bigger inhibition at 0.3 µM number? Please identify the chosen entry by its label.
Given back: P
(P: 58%, Q: 2%)

----------
Target: human BACE-1 (Homo sapiens)
Sequence (P56817 46-501): as above
Test: In Vitro BACE Assay run by CEREP (Example 14)
Conditions: recombinant enzyme, 60 min at 37° C., pH 4.5
From the text: This assay was run by CEREP (Catalog Ref. 761-B, Referred to SOP No. 1C131; ERMOLIEFF, J., LOY, J. A., KOELSCH, G. and TANG, J., Proteolytic activation of recombinant pro-memapsin 2 (pro-BACE) studied with new fluorogenic substrates, Biochemistry, (2000) Vol. 39, p. 12450). […]
Parameter: IC50 (nM)

Below: 5 compounds and their reported IC50.
- Compound: "Nc1nc2ccc(Oc3ccccc3)cc2cc1C(CCC(=O)N(CN1CCCC1)C1CCCCC1)C1CCOCC1 (stereo not shown) [compound 64]"
  Readout Value: 190
- Compound: "Cn1ccnc1CN(CC(C)(C)C)C(=O)CCC(c1cc2cc(Oc3ccccc3)ccc2nc1N)C1CCOCC1 (stereo not shown) [compound 55]"
  Readout Value: 420
- Compound: "Cn1ccnc1CN(C(=O)CCC(c1cc2cc(Oc3ccccc3)ccc2nc1N)C1CCCCC1)C1CCCCC1 (stereo not shown) [compound 39]"
  Readout Value: 490
- Compound: "Nc1nc2ccc(Oc3ccccc3)cc2cc1C(CCC(=O)N(c1ncc[nH]1)C1CCCCC1)C1CCCCC1 (stereo not shown) [compound 41]"
  Readout Value: 470
- Compound: "Nc1nc2ccc(Oc3ccccc3)cc2cc1C(CCC(=O)N(CCO)C1CCCCC1)C1CCCCC1 (stereo not shown) [compound 42]"
  Readout Value: 810

(P) Cn1ccnc1CN(CC(C)(C)C)C(=O)CCC(c1cc2cc(Oc3ccccc3)ccc2nc1N)C1CCCCC1 (stereo not shown) [compound 43]
(Q) Nc1nc2ccc(Oc3ccccc3)cc2cc1C(CCC(=O)N(CCO)CC1CC1)C1CCOCC1 (stereo not shown) [compound 68]
Asked: Pick one: P or Q . Which has the bigger IC50 number? Please identify the chosen entry by its label.
Given back: Q
(Q: 1500 nM, P: 650 nM)
